Source: PubChem BioAssay (EPA / NIEHS)

- Assay notes: BSK_3C_SRB: Viability Assessment in the BioMAP Diversity Plus: 3C Assay (AID 2283023);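 also: cells read 24 h after compound dosing; fitted both ways against DMSO so a hit may be signal rise or drop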
- Condition parameters: primary human endothelial cells (HUVEC)
Active and inactive are the calls of the source. The calls were made as follows: active = hit-call score of the fitted dose curve at least 0.9, where 1 is the maximum; inactive = score below 0.9.
Possible outcomes: yes = active, no = inactive

{"columns": ["Compound", "Category label"],
 "data": [
  ["CCC1(c2ccccc2)C(=O)N=C(O)NC1=O (configuration not stated)", "no"],
  ["CC(C)(C)OOC(C)(C)C", "no"],
  ["Cc1cccc(N)c1", "no"],
  ["C=CC(=O)OCC(F)(F)C(F)F", "no"],
  ["c1ccc2c(c1)sc1ccccc12", "no"],
  ["ClC(Cl)(Cl)c1ccccc1", "no"],
  ["O=c1ssc(Cl)c1Cl", "yes"]
]}
